The reported measurements were obtained from patent US12371454B2.

# study system: Kras and SOS1 (biotin-tagged human Kras loaded with GDP, His-tagged human SOS1) (Homo sapiens, UniProt P01116, G12D)
# Construct: made in house; host or cells: E. coli (stated for Kras only)
# Sequence (P01116 1-188 isoform P01116-2 G12D): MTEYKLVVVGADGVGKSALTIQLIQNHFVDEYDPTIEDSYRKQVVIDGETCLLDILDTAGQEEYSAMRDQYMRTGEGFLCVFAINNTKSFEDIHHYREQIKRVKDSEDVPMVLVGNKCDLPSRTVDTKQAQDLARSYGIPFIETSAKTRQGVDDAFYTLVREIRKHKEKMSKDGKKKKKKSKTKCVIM
# test summary: Protein-protein interaction inhibition between Kras and SOS1 (KrasGl2D-SOS PPI) using AlphaScreen
# Type: binding
# condition label: AlphaScreen; biotin-tagged human Kras loaded with GDP, His-tagged human SOS1; read-out: KRAS G12D-SOS PPI IC50
# Description: Protein-Protein Interaction Inhibition Between Kras and SOS1 (KrasGl2D-SOS PPI) Using AlphaScreen Protein-protein interaction inhibition (PPI) between Kras and SOS1 was measured by energy transfer from nickel-conjugated donor beads to streptavidin-conjugated acceptor beads using biotin-tagged human Kras expressed in E. coli and loaded with GDP after purification and His-tagged human SOS1 enzyme. […]
Positions of bridges follow the written chain, without caps; N, C: chain ends. Non-standard residues stand in square brackets, D forms with d. Residues, ends and D or L forms follow the SMILES beside them. NMeAbu(3,3-F2-piperidino) = CN[C@@H](CCN1CCCC(F)(F)C1)C(=O)O; hPhe(3-Cl-4-CF3) = N[C@@H](CCc1ccc(C(F)(F)F)c(Cl)c1)C(=O)O; NMeAla(4-thiazolyl) = CN[C@@H](Cc1cscn1)C(=O)O; NMePhe(4-Me) = CN[C@@H](Cc1ccc(C)cc1)C(=O)O; NMeGly(cPent) = CN[C@H](C(=O)O)C1CCCC1; NMeCha = CN[C@@H](CC1CCCCC1)C(=O)O; NMeI = CC[C@H](C)[C@H](NC)C(=O)O; NMeD = CN[C@@H](CC(=O)O)C(=O)O; NMeL = CN[C@@H](CC(C)C)C(=O)O; NMeA = CN[C@@H](C)C(=O)O; Ac5c = NC1(C(=O)O)CCCC1; Aze = O=C(O)[C@@H]1CCN1; Sar = CNCC(=O)O
readout name: pIC50
On this scale, pIC50 is minus log10 of a concentration expressed in M (mol/L).

Q: Report measured pIC50; entry is CC[C@H](C)[C@@H]1NC(=O)[C@H](CC(C)C)N(C)C(=O)C[C@@H](C(=O)N(C)C)N(C)C(=O)[C@H](C2CCCC2)N(C)C(=O)[C@H](C(C)C)NC(=O)[C@H](CCN2CCCC(F)(F)C2)N(C)C(=O)[C@H](CCc2ccc(C(F)(F)F)c(Cl)c2)NC(=O)CN(C)C(=O)[C@H](CC2CCCCC2)N(C)C(=O)[C@@H]2CCN2C(=O)[C@H](C)N(C)C1=O [Compound 389] ([NMeL]I[NMeA][Aze][NMeCha][Sar][hPhe(3-Cl-4-CF3)][NMeAbu(3,3-F2-piperidino)]V[NMeGly(cPent)][NMeD]-NMe2; lactam N-11)
A: 7.35

Q: Report measured pIC50; entry is CC[C@H](C)[C@@H]1NC(=O)[C@H](CC(C)C)N(C)C(=O)C[C@@H](C(=O)N(C)C)N(C)C(=O)[C@H]([C@@H](C)CC)N(C)C(=O)C2(CCCC2)NC(=O)[C@H](Cc2cscn2)N(C)C(=O)[C@H](CCc2ccc(C(F)(F)F)c(Cl)c2)NC(=O)CN(C)C(=O)[C@H](Cc2ccc(C)cc2)N(C)C(=O)[C@@H]2CCN2C(=O)[C@H](C)N(C)C1=O [Compound 441] ([NMeL]I[NMeA][Aze][NMePhe(4-Me)][Sar][hPhe(3-Cl-4-CF3)][NMeAla(4-thiazolyl)][Ac5c][NMeI][NMeD]-NMe2; lactam N-11)
A: 9.14

* * *

# study system: Kras and SOS1 (biotin-tagged human Kras loaded with GDP, His-tagged human SOS1) (Homo sapiens, UniProt P01116, G12D)
# Construct: made in house; host or cells: E. coli (stated for Kras only)
# test summary: Protein-protein interaction inhibition between Kras and SOS1 (KrasGl2D-SOS PPI) using AlphaScreen
# Type: binding
# condition label: AlphaScreen; biotin-tagged human Kras loaded with GDP, His-tagged human SOS1; read-out: KRAS G12D-SOS PPI IC50
Starred links: 1 amine or outer side, 2 acyl side, 3 side chain; linkers in the order of their positions; H or OH if unused. Positions of bridges follow the written chain, without caps; N, C: chain ends. Non-standard residues stand in square brackets, D forms with d. Residues, ends and D or L forms follow the SMILES beside them. *: point of attachment. hPhe(3-Cl-4-CF3) = N[C@@H](CCc1ccc(C(F)(F)F)c(Cl)c1)C(=O)O; hPhe(3-F,4-CF3) = N[C@@H](CCc1ccc(C(F)(F)F)c(F)c1)C(=O)O; NMedβ3hAla = C[C@H](CC(=O)[*:2])N(C)[*:1]; NMeAla(cPent) = CN[C@@H](CC1CCCC1)C(=O)O; NMeAla(cPr) = CN[C@@H](CC1CC1)C(=O)O; NMeCha = CN[C@@H](CC1CCCCC1)C(=O)O; NMeChg = CN[C@H](C(=O)O)C1CCCCC1; NMeD = CN[C@@H](CC(=O)O)C(=O)O; NMeL = CN[C@@H](CC(C)C)C(=O)O; d(β3hA) = C[C@@H](N)CC(=O)O; Morpholide = C1CN(*)CCO1; Ac5c = NC1(C(=O)O)CCCC1; Thp = NC1(C(=O)O)CCOCC1; Sar = CNCC(=O)O
readout name: IC50 (nM)
Return type: number; implicit unit nM.

Q: Report measured IC50; entry is CC[C@H](C)[C@@H]1NC(=O)[C@H](CC(C)C)N(C)C(=O)C[C@@H](C(=O)N2CCOCC2)N(C)C(=O)[C@H](C2CCCCC2)N(C)C(=O)C2(CCCC2)NC(=O)[C@@H]2CCCN2C(=O)[C@H](CCc2ccc(C(F)(F)F)c(Cl)c2)NC(=O)CN(C)C(=O)[C@H](CC2CCCC2)N(C)C(=O)CN(C)C(=O)CN(C)C1=O [Compound 1923] ([NMeL]I[Sar][Sar][NMeAla(cPent)][Sar][hPhe(3-Cl-4-CF3)]P[Ac5c][NMeChg][NMeD]-Morpholide; lactam N-11)
A: 0.89

Q: Report measured IC50; entry is CC[C@H](C)[C@@H]1NC(=O)[C@H](CC(C)C)N(C)C(=O)C[C@@H](C)N(C)C(=O)[C@H](CC(C)C)N(C)C(=O)C2(CCOCC2)NC(=O)[C@@H]2CCCN2C(=O)[C@H](CCc2ccc(C(F)(F)F)c(F)c2)NC(=O)CN(C)C(=O)[C@H](CC2CCCCC2)N(C)C(=O)CN(C)C(=O)CN(C)C1=O [Compound 407] (cyclo(I[Sar][Sar][NMeCha][Sar][hPhe(3-F,4-CF3)]P[Thp][NMeL][NMedβ3hAla][NMeL]))
A: 39

Q: Report measured IC50; entry is CC[C@H](C)[C@@H]1NC(=O)[C@H](CC(C)C)N(C)C(=O)C[C@@H](C)NC(=O)[C@H](CC2CC2)N(C)C(=O)C2(CCCC2)NC(=O)[C@@H]2CCCN2C(=O)[C@H](CCc2ccc(C(F)(F)F)c(Cl)c2)NC(=O)CN(C)C(=O)[C@H](CC2CCCCC2)N(C)C(=O)CN(C)C(=O)CN(C)C1=O [Compound 707] (cyclo([Ac5c][NMeAla(cPr)][d(β3hA)][NMeL]I[Sar][Sar][NMeCha][Sar][hPhe(3-Cl-4-CF3)]P))
A: 14

* * *

Exercise: state measured pIC50 for each of the compounds provided.
# study system: Kras and SOS1 (biotin-tagged human Kras loaded with GDP, His-tagged human SOS1) (Homo sapiens, UniProt P01116, G12D)
# Construct: made in house; host or cells: E. coli (stated for Kras only)
# test summary: Protein-protein interaction inhibition between Kras and SOS1 (KrasGl2D-SOS PPI) using AlphaScreen
# Type: binding
# condition label: AlphaScreen; biotin-tagged human Kras loaded with GDP, His-tagged human SOS1; read-out: KRAS G12D-SOS PPI IC50
Positions of bridges follow the written chain, without caps; N, C: chain ends. Non-standard residues stand in square brackets, D forms with d. Residues, ends and D or L forms follow the SMILES beside them. *: point of attachment. hPhe(3-Cl-4-CF3) = N[C@@H](CCc1ccc(C(F)(F)F)c(Cl)c1)C(=O)O; hPhe(4-Cl) = N[C@@H](CCc1ccc(Cl)cc1)C(=O)O; NMeY = CN[C@@H](Cc1ccc(O)cc1)C(=O)O; NMeCha = CN[C@@H](CC1CCCCC1)C(=O)O; NMeChg = CN[C@H](C(=O)O)C1CCCCC1; NMeD = CN[C@@H](CC(=O)O)C(=O)O; NMeL = CN[C@@H](CC(C)C)C(=O)O; NMeV = CN[C@H](C(=O)O)C(C)C; d(β3hA) = C[C@@H](N)CC(=O)O; NMeA = CN[C@@H](C)C(=O)O; Piperidide = C1CCN(*)CC1; Ac5c = NC1(C(=O)O)CCCC1; CF3 = FC(F)(F)*; Sar = CNCC(=O)O
On this scale, pIC50 is minus log10 of a concentration expressed in M (mol/L).

Q: Report measured pIC50; entry is CC[C@H](C)[C@@H]1NC(=O)[C@H](C)N(C)C(=O)C[C@@H](C(=O)N2CCCCC2)N(C)C(=O)[C@H](C2CCCCC2)N(C)C(=O)C2(CCCC2)NC(=O)[C@@H]2CCCN2C(=O)[C@H](CCc2ccc(Cl)cc2)NC(=O)CN(C)C(=O)[C@H](CC2CCCCC2)N(C)C(=O)CN(C)C(=O)CN(C)C1=O [Compound 292] ([NMeA]I[Sar][Sar][NMeCha][Sar][hPhe(4-Cl)]P[Ac5c][NMeChg][NMeD]-Piperidide; lactam N-11)
A: 9.35

Q: Report measured pIC50; entry is CC[C@H](C)[C@@H]1NC(=O)[C@H](CC(C)C)N(C)C(=O)C[C@@H](C)NC(=O)[C@H](C(C)C)N(C)C(=O)C2(CCCC2)NC(=O)[C@@H]2CCCN2C(=O)[C@H](CCc2ccc(C(F)(F)F)c(Cl)c2)NC(=O)CN(C)C(=O)[C@H](Cc2ccc(OC(F)(F)F)cc2)N(C)C(=O)CN(C)C(=O)CN(C)C1=O [Compound 1565] (cyclo([Ac5c][NMeV][d(β3hA)][NMeL]I[Sar][Sar][NMeY](CF3)[Sar][hPhe(3-Cl-4-CF3)]P))
A: 7.85
